Sourced from paper PMC8772704

# Procedure Text: Long-term storage stability of antibiotics in combination with fosfomycin spiked in plasma/CAMHB (−30 °C, −80 °C)
# Format: physicochemical
# Condition Label: CAMHB, combination with fosfomycin, 4 weeks at -30 °C; MQC (nominal as E14)
Observable: Mean accuracy (%), Table S16

Molecule	Experimental Result
CN(C)c1cc(NC(=O)CNC(C)(C)C)c(O)c2c1C[C@H]1C[C@H]3[C@H](N(C)C)C(O)=C(C(N)=O)C(=O)[C@@]3(O)C(O)=C1C2=O [Tigecycline, tigecycline]	100.6
NC(=O)[C@@H]1CC[C@@H]2CN1C(=O)N2OS(=O)(=O)O [Avibactam, avibactam]	80.6
C[C@H]1[C@H](NC(=O)/C(=N\OC(C)(C)C(=O)O)c2csc(N)n2)C(=O)N1S(=O)(=O)O [Aztreonam, aztreonam]	91.8
CO/N=C(\C(=O)N[C@@H]1C(=O)N2C(C(=O)[O-])=C(C[N+]3(C)CCCC3)CS[C@H]12)c1csc(N)n1 [Cefepime, cefepime]	94.9
C[C@@H](O)[C@H]1C(=O)N2C(C(=O)O)=C(S[C@@H]3CN[C@H](C(=O)N(C)C)C3)[C@H](C)[C@H]12 [Meropenem, meropenem]	63.5
CCN1CCN(C(=O)N[C@@H](C(=O)N[C@@H]2C(=O)N3[C@@H]2SC(C)(C)[C@@H]3C(=O)O)c2ccccc2)C(=O)C1=O [Piperacillin, piperacillin]	67.5
C[C@]1(Cn2ccnn2)[C@H](C(=O)O)N2C(=O)C[C@H]2S1(=O)=O [Tazobactam, tazobactam]	84.1
Cn1c(N)c(NC(=O)NCCN)c[n+]1CC1=C(C(=O)O)N2C(=O)[C@@H](NC(=O)/C(=N\OC(C)(C)C(=O)[O-])c3nsc(N)n3)[C@H]2SC1 [Ceftolozane, ceftolozane]	90.4
C[C@@H](O)[C@H]1C(=O)N2C(C(=O)O)=C(S[C@@H]3CN[C@H](CNS(N)(=O)=O)C3)[C@H](C)[C@H]12 [Doripenem, doripenem]	60.6
C[C@@H]1O[C@@H]1P(=O)(O)O [Fosfomycin, fosfomycin]	95.4
CC(C)(O/N=C(\C(=O)N[C@@H]1C(=O)N2C(C(=O)[O-])=C(C[n+]3ccccc3)CS[C@H]12)c1csc(N)n1)C(=O)O [Ceftazidime, ceftazidime]	100.4

----------
Reported values of Mean accuracy (%), Table S7 for individual entries
# Procedure Text: Autosampler stability at 4 °C of extracted antibiotic-spiked plasma/CAMHB samples
# Condition Label: plasma extracted samples, 7 h autosampler 4 °C; LQC: nominal 1 mg/L (levofloxacin, avibactam 0.5; fosfomycin 10)
Observable: Mean accuracy (%), Table S7

Molecule	Output Unit	Experimental Result
CC(C)(O/N=C(\C(=O)N[C@@H]1C(=O)N2C(C(=O)[O-])=C(C[n+]3ccccc3)CS[C@H]12)c1csc(N)n1)C(=O)O [Ceftazidime, ceftazidime]	%	94.9
CN(C)c1cc(NC(=O)CNC(C)(C)C)c(O)c2c1C[C@H]1C[C@H]3[C@H](N(C)C)C(O)=C(C(N)=O)C(=O)[C@@]3(O)C(O)=C1C2=O [Tigecycline, tigecycline]	%	106.7
C[C@]1(Cn2ccnn2)[C@H](C(=O)O)N2C(=O)C[C@H]2S1(=O)=O [Tazobactam, tazobactam]	%	113.6
C[C@@H](O)[C@H]1C(=O)N2C(C(=O)O)=C(S[C@@H]3CN[C@H](C(=O)N(C)C)C3)[C@H](C)[C@H]12 [Meropenem, meropenem]	%	110.0
NC(=O)[C@@H]1CC[C@@H]2CN1C(=O)N2OS(=O)(=O)O [Avibactam, avibactam]	%	105.4
Cn1c(N)c(NC(=O)NCCN)c[n+]1CC1=C(C(=O)O)N2C(=O)[C@@H](NC(=O)/C(=N\OC(C)(C)C(=O)[O-])c3nsc(N)n3)[C@H]2SC1 [Ceftolozane, ceftolozane]	%	106.0
C[C@H]1[C@H](NC(=O)/C(=N\OC(C)(C)C(=O)O)c2csc(N)n2)C(=O)N1S(=O)(=O)O [Aztreonam, aztreonam]	%	100.8
C[C@@H](O)[C@H]1C(=O)N2C(C(=O)O)=C(S[C@@H]3CN[C@H](CNS(N)(=O)=O)C3)[C@H](C)[C@H]12 [Doripenem, doripenem]	%	104.0

----------
# Procedure Text: Long-term storage stability of antibiotics in combination with fosfomycin spiked in plasma/CAMHB (−30 °C, −80 °C)
# Type: physicochemical
# Condition Label: plasma, combination with fosfomycin, 4 weeks at -30 °C; LQC (nominal as E13)
Reported values of Mean accuracy (%), Table S12 for individual entries

Compound	Mean accuracy (%), Table S12
C[C@@H](O)[C@H]1C(=O)N2C(C(=O)O)=C(S[C@@H]3CN[C@H](CNS(N)(=O)=O)C3)[C@H](C)[C@H]12	100.0
Cn1c(N)c(NC(=O)NCCN)c[n+]1CC1=C(C(=O)O)N2C(=O)[C@@H](NC(=O)/C(=N\OC(C)(C)C(=O)[O-])c3nsc(N)n3)[C@H]2SC1	99.0
CC(C)(O/N=C(\C(=O)N[C@@H]1C(=O)N2C(C(=O)[O-])=C(C[n+]3ccccc3)CS[C@H]12)c1csc(N)n1)C(=O)O	100.3
C[C@H]1[C@H](NC(=O)/C(=N\OC(C)(C)C(=O)O)c2csc(N)n2)C(=O)N1S(=O)(=O)O	106.4
C[C@@H]1O[C@@H]1P(=O)(O)O	104.5
NC(=O)[C@@H]1CC[C@@H]2CN1C(=O)N2OS(=O)(=O)O	100.2
C[C@@H](O)[C@H]1C(=O)N2C(C(=O)O)=C(S[C@@H]3CN[C@H](C(=O)N(C)C)C3)[C@H](C)[C@H]12	106.1
C[C@]1(Cn2ccnn2)[C@H](C(=O)O)N2C(=O)C[C@H]2S1(=O)=O	102.0
CCN1CCN(C(=O)N[C@@H](C(=O)N[C@@H]2C(=O)N3[C@@H]2SC(C)(C)[C@@H]3C(=O)O)c2ccccc2)C(=O)C1=O	106.0
CN(C)c1cc(NC(=O)CNC(C)(C)C)c(O)c2c1C[C@H]1C[C@H]3[C@H](N(C)C)C(O)=C(C(N)=O)C(=O)[C@@]3(O)C(O)=C1C2=O	97.8
CO/N=C(\C(=O)N[C@@H]1C(=O)N2C(C(=O)[O-])=C(C[N+]3(C)CCCC3)CS[C@H]12)c1csc(N)n1 [Cefepime, cefepime]	100.5

----------
# Procedure Text: 32-day stability of stock solutions stored at −80 °C
# Type: physicochemical
# Condition Label: stock solution stored at -80 °C; peak area Day 32 vs Day 1
Reported values of 32 Day Stability (%) for individual entries
Observable: 32 Day Stability (%)

Compound	Observable	Output Unit	Experimental Result
CO/N=C(\C(=O)N[C@@H]1C(=O)N2C(C(=O)[O-])=C(C[N+]3(C)CCCC3)CS[C@H]12)c1csc(N)n1 [Cefepime, cefepime]	32 Day Stability (%)	%	108.51
C[C@@H](O)[C@H]1C(=O)N2C(C(=O)O)=C(S[C@@H]3CN[C@H](C(=O)N(C)C)C3)[C@H](C)[C@H]12	32 Day Stability (%)	%	100.48
CCN1CCN(C(=O)N[C@@H](C(=O)N[C@@H]2C(=O)N3[C@@H]2SC(C)(C)[C@@H]3C(=O)O)c2ccccc2)C(=O)C1=O	32 Day Stability (%)	%	100.48
Cn1c(N)c(NC(=O)NCCN)c[n+]1CC1=C(C(=O)O)N2C(=O)[C@@H](NC(=O)/C(=N\OC(C)(C)C(=O)[O-])c3nsc(N)n3)[C@H]2SC1	32 Day Stability (%)	%	107.69
CC(C)(O/N=C(\C(=O)N[C@@H]1C(=O)N2C(C(=O)[O-])=C(C[n+]3ccccc3)CS[C@H]12)c1csc(N)n1)C(=O)O	32 Day Stability (%)	%	101.73
NC(=O)[C@@H]1CC[C@@H]2CN1C(=O)N2OS(=O)(=O)O	32 Day Stability (%)	%	102.63

----------
# Procedure Text: Autosampler stability at 4 °C of extracted antibiotic-spiked plasma/CAMHB samples
# Condition Label: plasma extracted samples, 15 h autosampler 4 °C; MQC (nominal as E14)
Reported values of Mean accuracy (%), Table S9 for individual entries

Smiles Repr	Mean accuracy (%), Table S9
CC(C)(O/N=C(\C(=O)N[C@@H]1C(=O)N2C(C(=O)[O-])=C(C[n+]3ccccc3)CS[C@H]12)c1csc(N)n1)C(=O)O	111.5
C[C@]1(Cn2ccnn2)[C@H](C(=O)O)N2C(=O)C[C@H]2S1(=O)=O	98.1
C[C@H]1COc2c(N3CCN(C)CC3)c(F)cc3c(=O)c(C(=O)O)cn1c23	106.1
C[C@H]1[C@H](NC(=O)/C(=N\OC(C)(C)C(=O)O)c2csc(N)n2)C(=O)N1S(=O)(=O)O	102.4

----------
# Procedure Text: Long-term storage stability of antibiotics in combination with fosfomycin spiked in plasma/CAMHB (−30 °C, −80 °C)
# Assay type: physicochemical
# Condition Label: plasma, combination with fosfomycin, 4 weeks at -80 °C; LQC (nominal as E13)

Smiles Repr	Mean accuracy (%), Table S14
Cn1c(N)c(NC(=O)NCCN)c[n+]1CC1=C(C(=O)O)N2C(=O)[C@@H](NC(=O)/C(=N\OC(C)(C)C(=O)[O-])c3nsc(N)n3)[C@H]2SC1	89.3
NC(=O)[C@@H]1CC[C@@H]2CN1C(=O)N2OS(=O)(=O)O	101.0
C[C@H]1[C@H](NC(=O)/C(=N\OC(C)(C)C(=O)O)c2csc(N)n2)C(=O)N1S(=O)(=O)O	104.2
CC(C)(O/N=C(\C(=O)N[C@@H]1C(=O)N2C(C(=O)[O-])=C(C[n+]3ccccc3)CS[C@H]12)c1csc(N)n1)C(=O)O	98.8
